Entries and their EC50 values follow.
SYSTEM_UNDER_TEST: T1, human MET ECD (human, UniProt P08581 25-932)
T1 construct: range 1-932; recombinant ECD made by the applicants; the stated range begins at residue 1, so it includes the signal peptide of the entry; also called hMET; hMET ECD
ASSAY_OVERVIEW: ELISA, MET ECD in solid phase, mAb 0-20 nM
Numbers only; they are read as nM.

The following binders have reported results that may help.
71A3 chimeric llama-human IgG1 mAb (antibody, V domains shown, llama VH on human IgG1 CH1-CH2-CH3, llama VL on human lambda CL) VH: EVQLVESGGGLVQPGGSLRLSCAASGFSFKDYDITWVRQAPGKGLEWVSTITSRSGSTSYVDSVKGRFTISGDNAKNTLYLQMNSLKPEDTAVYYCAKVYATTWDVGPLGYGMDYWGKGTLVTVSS VL: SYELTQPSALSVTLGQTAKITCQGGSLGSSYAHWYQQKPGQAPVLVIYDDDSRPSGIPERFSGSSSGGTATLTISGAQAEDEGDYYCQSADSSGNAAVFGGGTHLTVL : 0.229
71C3 chimeric llama-human IgG1 mAb (antibody, V domains shown, llama VH on human IgG1 CH1-CH2-CH3, llama VL on human lambda CL) VH: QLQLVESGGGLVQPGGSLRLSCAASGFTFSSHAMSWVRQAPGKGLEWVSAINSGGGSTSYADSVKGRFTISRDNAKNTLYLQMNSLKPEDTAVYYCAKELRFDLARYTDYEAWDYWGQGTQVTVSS VL: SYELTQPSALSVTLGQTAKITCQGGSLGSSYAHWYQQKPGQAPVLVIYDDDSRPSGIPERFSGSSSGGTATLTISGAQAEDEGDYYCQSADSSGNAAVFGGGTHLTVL : 0.203
71D4 chimeric llama-human IgG1 mAb (antibody, V domains shown, llama VH on human IgG1 CH1-CH2-CH3, llama VL on human lambda CL) VH: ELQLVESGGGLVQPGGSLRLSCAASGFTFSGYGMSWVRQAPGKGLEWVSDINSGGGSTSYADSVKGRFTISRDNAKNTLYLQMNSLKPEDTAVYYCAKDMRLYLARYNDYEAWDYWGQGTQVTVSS VL: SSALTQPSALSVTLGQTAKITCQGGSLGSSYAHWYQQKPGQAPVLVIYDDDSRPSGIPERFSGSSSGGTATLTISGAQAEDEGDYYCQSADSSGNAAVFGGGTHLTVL : 0.207

Task: May I ask what EC50 has been recorded for 71G12 chimeric llama-human IgG1 mAb (antibody, V domains shown, llama VH on human IgG1 CH1-CH2-CH3, llama VL on human kappa CL) VH: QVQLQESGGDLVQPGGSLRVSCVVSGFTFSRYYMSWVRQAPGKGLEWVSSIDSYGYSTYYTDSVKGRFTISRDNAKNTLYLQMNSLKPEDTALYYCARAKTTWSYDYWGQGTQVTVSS VL: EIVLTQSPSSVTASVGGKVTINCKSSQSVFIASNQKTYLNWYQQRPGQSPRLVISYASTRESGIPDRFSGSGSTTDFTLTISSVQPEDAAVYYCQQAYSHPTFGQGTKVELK ?
Output: 0.106

Task: May I ask what EC50 has been recorded for 74C8 chimeric llama-human IgG1 mAb (antibody, V domains shown, llama VH on human IgG1 CH1-CH2-CH3, llama VL on human lambda CL) VH: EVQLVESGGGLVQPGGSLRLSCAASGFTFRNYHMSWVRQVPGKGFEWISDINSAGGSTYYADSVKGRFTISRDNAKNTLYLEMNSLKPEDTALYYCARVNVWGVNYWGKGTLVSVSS VL: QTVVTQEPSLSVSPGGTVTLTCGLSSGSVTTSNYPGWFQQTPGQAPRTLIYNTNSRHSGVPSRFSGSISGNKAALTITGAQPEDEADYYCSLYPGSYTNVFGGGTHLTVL ?
Output: 0.09

Task: May I ask what EC50 has been recorded for 71D6 chimeric llama-human IgG1 mAb (antibody, V domains shown, llama VH on human IgG1 CH1-CH2-CH3, llama VL on human lambda CL) VH: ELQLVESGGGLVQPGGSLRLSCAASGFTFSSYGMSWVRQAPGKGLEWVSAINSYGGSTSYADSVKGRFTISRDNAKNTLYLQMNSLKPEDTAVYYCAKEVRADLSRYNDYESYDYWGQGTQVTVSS VL: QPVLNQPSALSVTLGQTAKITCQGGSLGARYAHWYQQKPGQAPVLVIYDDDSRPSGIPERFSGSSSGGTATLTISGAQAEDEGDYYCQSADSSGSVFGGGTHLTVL ?
Output: 0.026

Task: May I ask what EC50 has been recorded for 76H10 chimeric llama-human IgG1 mAb (antibody, V domains shown, llama VH on human IgG1 CH1-CH2-CH3, llama VL on human lambda CL) VH: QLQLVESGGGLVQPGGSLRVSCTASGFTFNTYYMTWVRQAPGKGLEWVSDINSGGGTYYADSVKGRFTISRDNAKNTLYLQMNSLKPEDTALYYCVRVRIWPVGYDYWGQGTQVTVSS VL: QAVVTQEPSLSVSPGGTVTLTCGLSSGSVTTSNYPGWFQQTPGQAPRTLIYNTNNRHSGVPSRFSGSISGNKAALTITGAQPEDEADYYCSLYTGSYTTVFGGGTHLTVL ?
Output: 0.09

Task: May I ask what EC50 has been recorded for 71G3 chimeric llama-human IgG1 mAb (antibody, V domains shown, llama VH on human IgG1 CH1-CH2-CH3, llama VL on human lambda CL) VH: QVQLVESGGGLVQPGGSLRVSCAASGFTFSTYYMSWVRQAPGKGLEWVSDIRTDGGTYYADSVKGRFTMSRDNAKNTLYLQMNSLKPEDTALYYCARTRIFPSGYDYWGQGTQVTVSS VL: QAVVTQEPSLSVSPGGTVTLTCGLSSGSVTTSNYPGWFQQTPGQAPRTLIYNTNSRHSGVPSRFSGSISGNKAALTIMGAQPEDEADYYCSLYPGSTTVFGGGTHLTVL ?
Output: 0.067

Task: May I ask what EC50 has been recorded for 76G7 chimeric llama-human IgG1 mAb (antibody, V domains shown, llama VH on human IgG1 CH1-CH2-CH3, llama VL on human lambda CL) VH: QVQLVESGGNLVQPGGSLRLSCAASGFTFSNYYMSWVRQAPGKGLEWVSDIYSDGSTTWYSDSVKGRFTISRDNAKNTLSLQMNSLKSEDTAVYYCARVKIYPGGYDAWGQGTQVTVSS VL: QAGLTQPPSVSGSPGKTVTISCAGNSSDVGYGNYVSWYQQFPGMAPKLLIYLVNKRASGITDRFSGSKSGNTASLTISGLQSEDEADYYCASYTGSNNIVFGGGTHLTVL ?
Output: 0.128

Task: May I ask what EC50 has been recorded for 72F8 chimeric llama-human IgG1 mAb (antibody, V domains shown, llama VH on human IgG1 CH1-CH2-CH3, llama VL on human lambda CL) VH: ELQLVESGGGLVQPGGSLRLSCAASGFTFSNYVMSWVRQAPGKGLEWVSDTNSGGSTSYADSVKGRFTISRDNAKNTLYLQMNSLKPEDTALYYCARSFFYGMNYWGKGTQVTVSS VL: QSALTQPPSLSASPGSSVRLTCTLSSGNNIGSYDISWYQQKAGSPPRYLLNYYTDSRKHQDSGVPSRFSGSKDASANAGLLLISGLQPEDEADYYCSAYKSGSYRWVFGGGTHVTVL ?
Output: 0.064

Task: May I ask what EC50 has been recorded for 71G2 chimeric llama-human IgG1 mAb (antibody, V domains shown, llama VH on human IgG1 CH1-CH2-CH3, llama VL on human lambda CL) VH: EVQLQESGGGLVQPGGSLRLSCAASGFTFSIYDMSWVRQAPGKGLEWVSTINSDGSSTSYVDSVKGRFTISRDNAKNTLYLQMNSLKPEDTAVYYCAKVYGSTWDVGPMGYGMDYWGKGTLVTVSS VL: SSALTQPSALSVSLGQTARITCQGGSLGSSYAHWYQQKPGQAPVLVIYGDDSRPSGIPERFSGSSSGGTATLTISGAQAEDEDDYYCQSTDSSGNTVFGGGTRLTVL ?
Output: 0.112
